- Tested on: NCI-H358 (KRAS^G12C mutation) cell
- method: Cell assay of antiproliferative activity against NCI-H358 cell (Celltiter-Glo, 5 days)
- Assay type: cell-based
- experimental_parameters: Homo sapiens, NCI-H358, 120 h, 5 days incubation
pIC50: −log10 of the molar value.
Listing of recorded pIC50 by entry.

{"molecule": "C=CC(=O)N1CCN(c2nc(=O)n(-c3c(C(C)C)cccc3S(C)(=O)=O)c3nc(-c4cccc(=O)[nH]4)c(F)cc23)[C@@H](C)C1 [Example 72]", "target_under_test": "NCI-H358 (KRAS^G12C mutation) cell", "pIC50": "< 5.00"}
{"molecule": "C=CC(=O)N1CCN(c2nc(=O)n(-c3c(C)cccc3S(C)(=O)=O)c3nc(-c4c(O)cccc4F)c(F)cc23)[C@@H](C)C1 [Example 87]", "target_under_test": "NCI-H358 (KRAS^G12C mutation) cell", "pIC50": "> 7.00"}
{"molecule": "C=CC(=O)N1CCN(c2nc(=O)n(-c3ccccc3S(C)(=O)=O)c3nc(-c4c(O)cccc4F)c(F)cc23)C(CC(N)=O)C1 (stereo not drawn) [Example 61]", "target_under_test": "NCI-H358 (KRAS^G12C mutation) cell", "pIC50": "< 5.00"}
